Collected TGI values appear next to each entry.
system: HCC-2998 colon; test: NCI tumour cell line growth inhibition, 48 h
Where a SMILES comes first, the peptide text is derived from it. Bridges are numbered along the chain shown (N, C = ends). [ ]: non-standard residue; d: D form. The star is where a group is joined. PhAc = O=C(Cc1ccccc1)*
recorded_metric: TGI

* C/C(=C/c1ccccc1)CN(C(=O)/C=C\Sc1ccccc1)C(C)(C)C | > 100 µM
* C/C1=C/C(=O)O[C@@H]2C[C@@H](CC[C@H](C)/C=C\C=C\CC1)O[C@@](O)([C@@H]1CSC(=O)N1CO)C2 | 65.4 µM
* Cc1ccc(S(=O)(=O)N2c3ccccc3[C@H]3CCc4c([nH]c5ccccc45)[C@H]32)cc1 | > 100 µM
* C=C1[C@H](OC(=O)C(C)C)[C@@H](OC(C)=O)[C@@H](OC(C)=O)C(C)(C)[C@@H]2O[C@H]2[C@@H](C)C(=O)[C@@]2(OC(C)=O)C[C@@](C)(OC(C)=O)[C@H](OC(C)=O)[C@@H]2[C@H]1OC(C)=O | > 100 µM
* Cc1nn2c(=O)c([N+](=O)[O-])c(/C=C/c3ccco3)nc2s1 | > 100 µM
* COc1cc(C2SCC(=O)N2Cc2ccccc2)cc(OC)c1OC (stereo not drawn) | > 100 µM
* CC(=O)[O-].CC(=O)[O-].O=C(N/N=C/c1cc(Cl)cc(Cl)c1O)c1ccncc1.[Ni+2] | > 100 µM
* C=C(C)CNC(=S)N(N)c1ccc(OC)cc1 | > 100 µM
* NC(=O)c1ccc(NS(=O)(=O)c2ccc(N)cc2)nc1 | > 100 µM
* CN(C)CCCNC(=O)c1cc(NC(=O)c2cc(NS(=O)(=O)c3ccc4c(c3)C(=O)c3ccccc3C4=O)cn2C)cn1C | > 100 µM
* CCOC(=O)C[C@@H](C)[C@]1(C(=O)OC)CCCC1=O | > 100 µM
* O=C(N/N=C/c1ccccc1O)C(O)(c1ccccc1)c1ccccc1 | > 100 µM
* COC(=O)C(Cc1cnc[nH]1)NC(=O)CNC(=O)CCCn1c(=O)c2c3ccccc3n(C)c2n2nnc(-c3ccccc3)c12 (stereo not drawn) | > 100 µM
* O=C1c2sc(-c3ccc(F)cc3)cc2-n2cccc21 | > 100 µM
* COc1ccc(N=Nc2c(C)c(C#N)c(=S)n(C3OC(COC(C)=O)C(OC(C)=O)C(OC(C)=O)C3OC(C)=O)c2C)cc1 (stereo not drawn) | > 100 µM
* c1ccc(CSC2(SCc3ccccc3)CCCC2)cc1 | > 10 µM
* CCCc1cc(=O)oc2c(C=O)c(O)cc(O)c12 | 33.6 µM
* CCN(CC)C(=S)SNc1ccc(S(N)(=O)=O)cc1 | > 100 µM
* c1ccc(N=C(N2CCOCC2)N(CCN2CCOCC2)c2ccccc2)cc1 | > 100 µM
* O=C(Cc1ccccc1)N[C@@H]1COC(=O)[C@@H]2CCCN2C(=O)[C@@H]2CCCN2C1=O (PhAc-[dS]-Pro-Pro; ester 1-C) | > 100 µM
* C[C@H]1C(=O)O[C@@H]1[C@H]1COC(C)(C)O1 | > 100 µM
* CCSC(SCC)c1cc2c(cc1Br)OCO2 | 67.5 µM
* O=Nc1c(-c2c(O)[nH]c3ccccc23)[nH]c2ccccc12 | 16.3 µM
* Cc1ccc2[nH]c3c(C)c4c(c(C)c3c2c1)CN(C)C=C4 | 3.52 µM
* CCOC(=O)/C(C=Nc1c(C)n(C)n(-c2ccccc2)c1=O)=C(/O)c1ccccc1 | > 100 µM
* CC(N)C(=O)OCN1C(=O)C2C3C=CC(C2C1=O)C1C2C(=O)N(COC(=O)C(C)N)C(=O)C2C31 (stereo not drawn) | 97.9 µM
* O=C(CCCCCCCn1cc(-c2cccnc2)nn1)Nc1ccccc1-c1ccccc1 | > 61.8 µM
* CCC(=O)C1(N2CCOCC2)CCN(CCCC(=O)c2ccc(F)cc2)CC1 | > 100 µM
* Cc1ccc(/C=N/Nc2nc3ccccc3s2)s1 | > 100 µM
* COc1ccc2c(c1)CCN=C2Cc1ccccc1CCCl | 42.1 µM
* CC1=C(C(=O)Nc2ccccc2C)C(c2ccc(C3C(C(=O)Nc4ccccc4C)=C(C)NC(C)=C3C(=O)Nc3ccccc3C)cc2)C(C(=O)Nc2ccccc2C)=C(C)N1 | 9.31 µM
* CN[C@@H](C)C(=O)N[C@H]1CN(C(=O)CC(C)C)CC[C@H]2CC[C@@H](C(=O)NC(c3ccccc3)c3ccccc3)N2C1=O | > 100 µM
* Nc1nc(Cl)cc(NCCCCCNc2cc(Cl)nc(N)n2)n1 | > 100 µM
